Attribution: ChEMBL document CHEMBL4665795

Give measured inhibition for each item. Keep answers brief.
species on record: Mus musculus; assay: Inhibition of C57Bl6 mouse skeletal muscle myosin assessed as inhibition of phrenic nerve stimulation-induced contraction in mouse diaphragm at 100 uM relative to control
Hi, when you answer, please include the unit after the number. Thanks!

Exercise: Give recorded inhibition. C/C(=N\CCO)c1c(O)c2ccccc2[nH]c1=O
Solution: 94%

Exercise: Give recorded inhibition. C/C(=N\CC(C)C)c1c(O)c2ccccc2oc1=O
Solution: 22%

Exercise: Give recorded inhibition. C/C(=N\CC(C)C)c1c(O)c2ccccc2[nH]c1=O
Solution: 71%

Exercise: Give recorded inhibition. C/C(=N\Cc1ccncc1)c1c(O)c2ccccc2oc1=O
Solution: 98%

Exercise: Give recorded inhibition. CC(=N)c1c(O)c2ccccc2oc1=O
Solution: 73%

Exercise: Give recorded inhibition. CCCCC/N=C(\C)c1c(O)c2ccccc2[nH]c1=O
Solution: 99%

Exercise: Give recorded inhibition. C/C(=N\C(C)C)c1c(O)c2ccccc2[nH]c1=O
Solution: 18%

Exercise: Give recorded inhibition. CCC(C)/N=C(\C)c1c(O)c2ccccc2oc1=O (configuration not stated)
Solution: 21%

Exercise: Give recorded inhibition. CCCC/N=C(\C)c1c(O)c2ccccc2[nH]c1=O
Solution: 48%

Exercise: Give recorded inhibition. C/C(=N\CC1CCCCC1)c1c(O)c2ccccc2[nH]c1=O
Solution: 72%

Exercise: Give recorded inhibition. C/C(=N\Cc1ccccc1)c1c(O)c2ccccc2[nH]c1=O
Solution: 16%

Exercise: Give recorded inhibition. CCCC/N=C(\C)c1c(O)c2ccccc2oc1=O
Solution: 96%

---

Give measured pIC50 for each item. Keep answers brief.
assay: Inhibition of actin-activated rabbit skeletal muscle myosin 2 assessed as phosphate level incubated for 6 to 24 mins by spectrophotometric method; design: species or system Oryctolagus cuniculus
To interpret pIC50, take it as minus log10 of a concentration measured in moles per litre.

Exercise: Give recorded pIC50. C/C(=N\Cc1cccnc1)c1c(O)c2ccccc2oc1=O
Solution: 5.52

Exercise: Give recorded pIC50. CCCCC/N=C(\C)c1c(O)c2ccccc2oc1=O
Solution: 5.70

---

Give measured pIC50 for each item. Keep answers brief.
assay: Inhibition of actin-activated rabbit skeletal muscle myosin 2 assessed as phosphate level incubated for 6 to 24 mins by spectrophotometric method; set-up: species or system Oryctolagus cuniculus
To interpret pIC50, take it as minus log10 of a concentration measured in moles per litre.

Exercise: Give recorded pIC50. CCCCCC/N=C(\C)c1c(O)c2ccccc2oc1=O
Solution: 5.92

Exercise: Give recorded pIC50. C/C(=N\Cc1cccc(C)c1)c1c(O)c2ccccc2oc1=O
Solution: 5.00

Exercise: Give recorded pIC50. Cc1ccc2c(c1)C(=O)[C@]1(O)CCN(c3ccccc3)C1=N2
Solution: 6.30

Exercise: Give recorded pIC50. C/C(=N\CCO)c1c(O)c2ccccc2oc1=O
Solution: 4.04

Exercise: Give recorded pIC50. C/C(=N\Cc1ccccn1)c1c(O)c2ccccc2oc1=O
Solution: 5.17

Exercise: Give recorded pIC50. C/C(=N\CCCO)c1c(O)c2ccccc2oc1=O
Solution: 4.51

Exercise: Give recorded pIC50. CCC/N=C(\C)c1c(O)c2ccccc2oc1=O
Solution: 4.51

Exercise: Give recorded pIC50. C/C(=N\Cc1ccc(C)cc1)c1c(O)c2ccccc2oc1=O
Solution: 6.10

Exercise: Give recorded pIC50. CCCC/N=C(\C)c1c(O)c2ccccc2oc1=O
Solution: 5.68

Exercise: Give recorded pIC50. CC/N=C(\C)c1c(O)c2ccccc2oc1=O
Solution: 4.33

---

experiment: Selectivity ratio of IC50 for actin-activated bovine heart muscle myosin 2 to IC50 for actin-activated rabbit skeletal muscle myosin 2
Give measured Ratio IC50 for each item. Keep answers brief.
Give your answer as a number; write no unit.

Exercise: Give recorded Ratio IC50. C/C(=N\Cc1cccnc1)c1c(O)c2ccccc2oc1=O
Solution: 5.6

Exercise: Give recorded Ratio IC50. CCCC/N=C(\C)c1c(O)c2ccccc2oc1=O
Solution: 2.8

---

experiment: Selectivity ratio of IC50 for actin-activated bovine heart muscle myosin 2 to IC50 for actin-activated rabbit skeletal muscle myosin 2
Give measured Ratio IC50 for each item. Keep answers brief.
Give your answer as a number; write no unit.

Exercise: Give recorded Ratio IC50. C/C(=N\CCO)c1c(O)c2ccccc2oc1=O
Solution: 1

Exercise: Give recorded Ratio IC50. C/C(=N\CCCO)c1c(O)c2ccccc2oc1=O
Solution: 1.2

Exercise: Give recorded Ratio IC50. CC/N=C(\C)c1c(O)c2ccccc2oc1=O
Solution: 2.1

Exercise: Give recorded Ratio IC50. CCC/N=C(\C)c1c(O)c2ccccc2oc1=O
Solution: 1.7

Exercise: Give recorded Ratio IC50. C/C(=N\Cc1ccccc1)c1c(O)c2ccccc2oc1=O
Solution: 9.1

Exercise: Give recorded Ratio IC50. C/C(=N\Cc1ccc(C)cc1)c1c(O)c2ccccc2oc1=O
Solution: 9.9

Exercise: Give recorded Ratio IC50. C/C(=N\Cc1cccc(C)c1)c1c(O)c2ccccc2oc1=O
Solution: 0.5

Exercise: Give recorded Ratio IC50. C/C(=N\Nc1ccccc1)c1c(O)c2ccccc2oc1=O
Solution: 13.5

Exercise: Give recorded Ratio IC50. CCCCC/N=C(\C)c1c(O)c2ccccc2oc1=O
Solution: 3.3

Exercise: Give recorded Ratio IC50. C/C(=N\Cc1ccccn1)c1c(O)c2ccccc2oc1=O
Solution: 3.2

Exercise: Give recorded Ratio IC50. CCCCCC/N=C(\C)c1c(O)c2ccccc2oc1=O
Solution: 2.4

---

tested on: HL-60; experiment: Cytotoxicity against human HL-60 cells assessed as reduction in cell viability incubated for 48 hrs by hemocytometer based trypan-blue exclusion assay; conditions: HL-60, 48 h
Quantity kind: IC50 (µM)
Record the value in µM, omitting the unit from your answer.

Exercise: Give HL-60 IC50 for the following molecule: C/N=C(\C)c1c(O)c2ccccc2oc1=O
Solution: 408

Exercise: Give HL-60 IC50 for the following molecule: C/C(=N\CCO)c1c(O)c2ccccc2oc1=O
Solution: 590

Exercise: Give HL-60 IC50 for the following molecule: C/C(=N\Cc1ccccc1)c1c(O)c2ccccc2oc1=O
Solution: 801

---

assay: Competitive binding affinity to skeletal myosin S1 (unknown origin) assessed as reduction in Blebbistatin-induced fluorescence intensity incubated for 1 hr by fluorescence based assay; parameters: species or system Homo sapiens
Quantity kind: IC50
Hi, when you answer, please include the unit after the number. Thanks!

Exercise: Give recorded IC50. C/C(=N\Cc1ccccc1)c1c(O)c2ccccc2oc1=O
Solution: 5.3 µM

---

assay: Inhibition of actin-activated rabbit skeletal muscle myosin 2 assessed as phosphate level incubated for 6 to 24 mins by spectrophotometric method; parameters: species or system Oryctolagus cuniculus
Quantity kind: IC50 (µM)
Record the value in µM, omitting the unit from your answer.

Exercise: Give recorded IC50. C/C(=N\Cc1ccccc1)c1c(O)c2ccccc2oc1=O
Solution: 0.8

Exercise: Give recorded IC50. C/C(=N\Nc1ccccc1)c1c(O)c2ccccc2oc1=O
Solution: 2

Exercise: Give recorded IC50. C/C(=N\Cc1ccncc1)c1c(O)c2ccccc2oc1=O
Solution: 8.5

---

Give measured inhibition for each item. Keep answers brief.
organism: Mus musculus; experiment: Inhibition of C57Bl6 mouse skeletal muscle myosin assessed as inhibition of phrenic nerve stimulation-induced contraction in mouse diaphragm at 100 uM relative to control
Record the value in %, omitting the unit from your answer.

Exercise: Give recorded inhibition. C/C(=N\C(C)C)c1c(O)c2ccccc2oc1=O
Solution: 94

Exercise: Give recorded inhibition. CCC/N=C(\C)c1c(O)c2ccccc2[nH]c1=O
Solution: 41

Exercise: Give recorded inhibition. C/C(=N\CCCO)c1c(O)c2ccccc2oc1=O
Solution: 72

Exercise: Give recorded inhibition. CCC(C)/N=C(\C)c1c(O)c2ccccc2[nH]c1=O (stereo not drawn)
Solution: 98

Exercise: Give recorded inhibition. C/C(=N\Cc1ccccn1)c1c(O)c2ccccc2oc1=O
Solution: 86

Exercise: Give recorded inhibition. Cc1ccc2c(c1)C(=O)[C@]1(O)CCN(c3ccccc3)C1=N2
Solution: 99

Exercise: Give recorded inhibition. C/N=C(\C)c1c(O)c2ccccc2oc1=O
Solution: 80

Exercise: Give recorded inhibition. C/C(=N\CCO)c1c(O)c2ccccc2oc1=O
Solution: 87

---

species: Mus musculus; assay: Inhibition of C57Bl6 mouse […] assessed as reduction in action potential in mouse diaphragm at 100 uM
Calls of active or inactive are those of the source. The calls are words filed in the database; no cut-off is given here.
Mark one answer only. Choices: Y (active), N (inactive)

Exercise: Check the results log: what was the call for C/C(=N\CC1CCCCC1)c1c(O)c2ccccc2[nH]c1=O ?
Solution: Y

Exercise: Check the results log: what was the call for C/N=C(\C)c1c(O)c2ccccc2oc1=O ?
Solution: Y

Exercise: Check the results log: what was the call for CCCCC/N=C(\C)c1c(O)c2ccccc2[nH]c1=O ?
Solution: Y

Exercise: Check the results log: what was the call for C/C(=N\C(C)C)c1c(O)c2ccccc2oc1=O ?
Solution: Y

Exercise: Check the results log: what was the call for Cc1ccc2c(c1)C(=O)[C@]1(O)CCN(c3ccccc3)C1=N2 ?
Solution: Y

Exercise: Check the results log: what was the call for C/C(=N\Cc1ccncc1)c1c(O)c2ccccc2oc1=O ?
Solution: N

Exercise: Check the results log: what was the call for C/C(=N\Cc1ccccn1)c1c(O)c2ccccc2oc1=O ?
Solution: Y
